Values were extracted from patent US20110183978A1.

- Assay: physchem
- Setup conditions: LogPA (logP of the stated pure compound or, in a mixture, of the main isomer, 1-substituted 3-aryl-1H-pyrazole)
Experimental readout: chromatographic logP
// no unit string in output, number only

Task: Sample "Fc1ccc(-c2nn(Cc3ccc(-c4ccccc4)cc3)cc2-c2ccncc2)cc1" — what was its chromatographic logP?
Output: 2.39

Task: Sample "Cc1cc(C(=O)Cn2cc(-c3ccncc3)c(-c3ccc(F)cc3)n2)nn1C" — what was its chromatographic logP?
Output: 1.31

Task: Sample "N#CCCn1cc(-c2ccncc2)c(-c2ccc(F)cc2)n1" — what was its chromatographic logP?
Output: 0.81

Task: Sample N#Cc1cc(-c2c(-c3ccncc3)cnn2C2CCCCO2)ccc1F (stereo not drawn) — what was its chromatographic logP?
Output: 1.45

Task: Sample "CCOC(=O)CCn1cc(-c2ccncc2)c(-c2ccc(F)cc2)n1" — what was its chromatographic logP?
Output: 1.29

Task: Sample "Fc1ccc(-c2nn(-c3cc(C(F)(F)F)ncn3)cc2-c2ccncc2)cc1" — what was its chromatographic logP?
Output: 2.73

Task: Sample COCC(=O)Nc1cc(-c2cn(C3CCCCO3)nc2-c2ccc(F)cc2)ccn1 (stereo not drawn) — what was its chromatographic logP?
Output: 2.64

Task: Sample CC(C)(C)C(=O)Nc1cc(-c2cn(C3CCCCO3)nc2-c2cccc(C(F)(F)F)c2)ccn1 (stereo not drawn) — what was its chromatographic logP?
Output: 4.1

Task: Sample CCC(C)n1cc(-c2ccnc(NC(=O)C(C)C)c2)c(-c2ccc(F)cc2)n1 (stereo not drawn) — what was its chromatographic logP?
Output: 2.82

* * *

- Assay: physchem
- Setup conditions: LogPA (logP of the stated pure compound or, in a mixture, of the main isomer, 1-substituted 3-aryl-1H-pyrazole)
Record form. Attribute: chromatographic logP. Fill in for each entry.
// no unit string in output, number only

Task: Sample "CC(C)n1ncc(-c2ccnc(N)c2)c1-c1ccc(F)cc1" — what was its chromatographic logP?
Output: 1.25

Task: Sample "Fc1ccc(Cn2cc(-c3ccncc3)c(-c3ccc(F)cc3)n2)cc1" — what was its chromatographic logP?
Output: 1.69

Task: Sample COc1ccc(-c2nn(C3CCCCO3)cc2-c2ccnc(N)c2)cc1 (stereo not shown) — what was its chromatographic logP?
Output: 1.31

Task: Sample "CC(C)(C)Cn1cc(-c2ccncc2)c(-c2c(F)cccc2F)n1" — what was its chromatographic logP?
Output: 1.84

Task: Sample "CC(C)Cn1cc(-c2ccncn2)c(-c2cccc(Cl)c2)n1" — what was its chromatographic logP?
Output: 3.27

Task: Sample COc1ccc(-c2nn(C3CCCCO3)cc2-c2ccnc(C)n2)cc1 (stereo not shown) — what was its chromatographic logP?
Output: 2.27

Task: Sample "CC(C)=CCn1cc(-c2ccncn2)c(-c2cccc(Cl)c2)n1" — what was its chromatographic logP?
Output: 3.5

* * *

Record form. Attribute: pest or weed control at 500 ppm. Fill in for each entry.
- Tested on: Alternaria solani
- Assay: Example M: in vivo test on Alternaria solani (leaf blotch disease/tomato/protective)
- Setup conditions: 168 h, tomato, protective, 500 ppm active substance, assessed 7 days after inoculation, read-out: % Wirkungsgrad (activity level)
- Experimental: Solvent: 49 parts by weight N,N-dimethylformamide Emulsifier: 1 part by weight alkylaryl polyglycol ethers For the preparation of a suitable active substance preparation, 1 part by weight of active substance is mixed with the stated quantities of solvent and emulsifier and the concentrate is diluted to the desired concentration with water. For the testing for protective activity, young tomato plants are sprayed with the active substance preparation at the stated application dosage. […]
Give the quantity in %, number only.

Task: Sample "CC(C)n1cc(-c2ccnc(NC(=O)c3cccs3)c2)c(-c2ccc(F)cc2)n1" — what was its pest or weed control at 500 ppm?
Output: 90

Task: Sample CC(C)C(=O)Nc1cc(-c2cn(C(C)C3CC3)nc2-c2ccc(F)cc2)ccn1 (stereo not drawn) — what was its pest or weed control at 500 ppm?
Output: 100

Task: Sample "C#CCn1nc(-c2ccc(F)cc2)c(-c2ccncc2)c1C" — what was its pest or weed control at 500 ppm?
Output: 95

Task: Sample "CCC(=O)Nc1cc(-c2cn(CC(C)C)nc2-c2ccc(F)cc2)ccn1" — what was its pest or weed control at 500 ppm?
Output: 100

Task: Sample "Cn1cc(-c2ccnc(NC(=O)CC3CC3)c2)c(-c2ccc(F)cc2)n1" — what was its pest or weed control at 500 ppm?
Output: 100

Task: Sample "CCC(=O)Nc1cc(-c2c(-c3ccc(F)cc3)nn(C)c2OC(F)F)ccn1" — what was its pest or weed control at 500 ppm?
Output: 100

Task: Sample "CCn1cc(-c2ccnc(NC(=O)CC(C)C)c2)c(-c2ccc(F)cc2)n1" — what was its pest or weed control at 500 ppm?
Output: 95

Task: Sample "CCNC(=O)Nc1cc(-c2cn(CC(F)F)nc2-c2ccc(F)cc2)ccn1" — what was its pest or weed control at 500 ppm?
Output: 95

Task: Sample "CC(C)Cn1cc(-c2ccncc2-c2ccc(F)cc2)c(-c2ccc(F)cc2)n1" — what was its pest or weed control at 500 ppm?
Output: 70

Task: Sample "CCn1cc(-c2ccnc(NC(=O)[C@H](C)O)c2)c(-c2ccc(F)cc2)n1" — what was its pest or weed control at 500 ppm?
Output: 95

Task: Sample "CC(C)n1cc(-c2ccnc(N)n2)c(-c2ccc(F)cc2)n1" — what was its pest or weed control at 500 ppm?
Output: 80

Task: Sample "COCCn1cc(-c2ccnc(NC(=O)COC)c2)c(-c2ccc(F)cc2)n1" — what was its pest or weed control at 500 ppm?
Output: 93

Task: Sample CCOC(=O)Nc1cc(-c2cn(C(C)CC)nc2-c2ccc(F)cc2)ccn1 (stereo not drawn) — what was its pest or weed control at 500 ppm?
Output: 80

Task: Sample "CC(C)Nc1nccc(-c2cn(C)nc2-c2ccc(F)cc2)n1" — what was its pest or weed control at 500 ppm?
Output: 70

Task: Sample "CC(C)OC(=O)Nc1cc(-c2cn(C(C)C)nc2-c2ccc(F)cc2)ccn1" — what was its pest or weed control at 500 ppm?
Output: 94

Task: Sample "Cn1nc(-c2ccc(F)cc2O)c(-c2ccnc(NC(=O)C3CC3)c2)c1OC(F)F" — what was its pest or weed control at 500 ppm?
Output: 95

Task: Sample O=C(Nc1cc(-c2cn(CC3CC3(Cl)Cl)nc2-c2ccc(F)cc2)ccn1)C1CC1 (stereo not drawn) — what was its pest or weed control at 500 ppm?
Output: 90

Task: Sample "CCC(=O)Nc1cc(-c2cn(CCOC)nc2-c2ccc(F)cc2)ccn1" — what was its pest or weed control at 500 ppm?
Output: 90
